Recorded MIC by entry
# Tested on: Mycobacterium tuberculosis
# assayOverview: Antimycobacterial activity against Mycobacterium tuberculosis BRF57 harbouring KatG Ser315Thr mutant and wild type InhA assessed as reduction in bacterial growth incubated for 7 days by resazurin dye based assay
# Assay type: functional
The reply should be a number in µM, with the unit left off.

- structureString: "NNC(=O)c1ccncc1"
  recordedEndpoint: "MIC"
  resultValue: 4

Would you mind telling me what MIC value was observed for O=C(NN1C(=O)c2ccccc2C1=O)c1cc2c([nH]c3ccccc32)c(-c2ccccc2)n1 ? 289.27

Quick one: O=C(NN1C(=O)c2ccccc2C1=O)c1cc2c([nH]c3ccccc32)c(-c2ccc(F)cc2)n1 277.71

Next up: COC(=O)c1cc2c([nH]c3ccccc32)c(-c2ccc(N(C)C)cc2)n1 362.16

Now try O=C(NN1C(=O)CCC1=O)c1cc2c([nH]c3ccccc32)c(-c2ccc(F)cc2)n1 . 310.86
